Test system: MS2 coat protein
Test: apparent KD of MS2 coat protein; designed switch direction (-1 OFF switch, 1 ON switch): 1; higher = weaker reporter binding
Details: Eterna round: R95; input ligand: FMN 200 uM
Please use Yes whenever apparent KD of MS2 coat protein is not below 20 nM, and No whenever it is.

Please review the entries below; each comes with its answer.
residues	category
UCUUGGUUUUUGCUCGUUUUUUGUGUUGAACAUGAGGAUCACCCAUGUAUUGUACGGUCCGAUUUAAUAGUGGUCCG [JMF 19] (puzzle: Sensor for hsa-mir-208a)	Yes
AAUAUACAUGAGGAUCACCCAUGUUAGUAAAUGACAGGAUAUGGAAUAAAUAAAUAAUAACCAGAAGGGUCUAAUA [JMF's solution 2] (puzzle: Same State 1)	No
AGGUAACAUGAGGAUCACCCAUGUAAGGUGAACGUAGGAUAUCGAAGAGGUAGGGUAGGACGAGAAGGACGAGGAA [JR_SS1_Sub092] (puzzle: Same State 1)	Yes
AAAACACAUGAGGAUCACCCAUGUACCAGGUACAUAGGAUAUCCAGGCGCCAGAUGGCGCGGAGAAGGAUGGAAAA [Xeveoned] (puzzle: Same State 1)	Yes

Turning now to a further record.
Enquiry: Textbook exercise: given the entry CAGCGCUGUCGAGAGGAUAUGCGGUGAUAGACAUGAGGAUCACCCAUGUUAGCGAUAGCAUUACGGUAGAAGGCUCUACAGCUGC [Soteed - 12] (puzzle: Same State 2) , state whether its apparent KD of MS2 coat protein is greater than or equal to 20 nM.
Return: Yes
